assay: chemical genetic growth profiling, strain panel (AID 1159580);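 note: tested at 20 µM; growth read once vehicle control cultures reached saturation at 30 °C; 1 = growth at the plate median or of vehicle wells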; details: S. cerevisiae deletion strains, growth OD, locus YMR231W, strain pep5
In all, about 5,500 compounds went through this assay and about 2,000 (36%) were called active. Roughly 18% stayed inconclusive and do not appear here. Cut-off read from the data, not from the text of the source: active = normalized growth mostly below about 0.91 (no sharp cut-off); inconclusive = no clear call, values can overlap the other calls; inactive = mostly above about 0.92. The list shows a part of the results.
Outcomes you can answer with include only these: active, inactive

In this assay, the call recorded for COc1ccc2c(c1)c(CC(=O)O)c(C)n2C(=O)c1ccc(Cl)cc1 was what?
inactive

In this assay, the call recorded for C#C[C@]1(OC(C)=O)CCC2C3CCC4=CC(=O)CC[C@@H]4C3CC[C@@]21C (stereo partly drawn) was what?
inactive

In this assay, the call recorded for Cc1cc(O)cc(C)c1Cl was what?
active

* * *

test: chemical genetic growth profiling, strain panel (AID 1159580); conditions: S. cerevisiae deletion strains, growth OD, locus YLL001W, strain dnm1, stronger effect = lower value
Screen size: about 5,500 compounds; about 2,000 (36%) were called active. Another 18% or so got no clear call; they are omitted. Some of the results follow.
hey, just use label 1 if measured normalized growth is less than 1, otherwise label 0

In plain terms, does Clc1ccccc1C(c1ccccc1)(c1ccccc1)n1ccnc1 come in under 1 for normalized growth?
label 1

In plain terms, does CC(C)=CCCC1(C)C=Cc2c(O)c3c(c(CC=C(C)C)c2O1)OC12C(=CCCC1C(C)(C)O[C@@]2(C/C=C(\C)C(=O)O)C(=O)O)C3=O (stereo not given in full) come in under 1 for normalized growth?
label 1

In plain terms, does CC1OC(=O)C(C(C)C)NC(=O)C(C(C)C)OC(=O)C(C(C)C)NC(=O)C(C)OC(=O)C(C(C)C)NC(=O)C(C(C)C)OC(=O)C(C(C)C)NC(=O)C(C)OC(=O)C(C(C)C)NC(=O)C(C(C)C)OC(=O)C(C(C)C)NC1=O (stereo not given) come in under 1 for normalized growth?
label 1

In plain terms, does CCC(C)C(NC)C(=O)O (stereo not given) come in under 1 for normalized growth?
label 0

* * *

assay: chemical genetic growth profiling, strain panel (AID 1159580);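 note: tested at 20 µM; growth read once vehicle control cultures reached saturation at 30 °C; 1 = growth at the plate median or of vehicle wells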; conditions: S. cerevisiae deletion strains, growth OD, locus YMR223W, strain ubp8, stronger effect = lower value
About 2,000 (36%) of roughly 5,500 compounds were called active. Roughly 18% stayed inconclusive and do not appear here. Some of the results follow.
Would you kindly list normalized growth for each of these compounds?

Specify reported normalized growth for the compound shown: COC(=O)C[C@H]1C(C)(C)C(=O)[C@@H]2CC3C4=CC(=O)O[C@@H](c5ccoc5)[C@]4(C)CCC3[C@@]1(C)C2=O (stereo partly drawn)
1 (inactive)

Specify reported normalized growth for the compound shown: C[C@@H]1OC(O[C@H]2[C@H](OC(=O)[C@]34CCC(C)(C)CC3C3=CCC5[C@@]6(C)CC[C@H](OC7O[C@@H](C)[C@H](O[C@@H]8OC[C@@H](O)[C@H](O)[C@H]8O)[C@@H](O)[C@H]7O)C(C)(C)C6CC[C@@]5(C)[C@]3(C)CC4O)OC[C@H](O)[C@H]2O)[C@H](O)[C@H](O)[C@H]1O[C@@H]1O[C@H](CO)[C@@H](O)[C@H](O)[C@H]1O (stereo partly drawn)
0.895 (active)

Specify reported normalized growth for the compound shown: Fc1ccc(C(c2ccccc2)(c2ccccc2F)n2ccnc2)cc1 (stereo not drawn)
0.0885 (active)

Specify reported normalized growth for the compound shown: Clc1ccccc1C(c1ccccc1)(c1ccccc1)n1ccnc1
0.0652 (active)

Specify reported normalized growth for the compound shown: Cc1cc(O)cc(O)c1C(=O)O
0.978 (inactive)

Specify reported normalized growth for the compound shown: C/C=C(/C)C(=O)O[C@H]1CC[C@@]2(C)[C@@H]3CC[C@H]4[C@]5(O)C[C@H](O)[C@@]6(O)[C@@H](CN7C[C@@H](C)CC[C@H]7[C@@]6(C)O)[C@]5(O)C[C@@]42O[C@]13O
1 (inactive)

Specify reported normalized growth for the compound shown: CC1(C)CC[C@@]2(C(=O)O)C(C1)C1=CCC3[C@@]4(C)CC[C@H](O)C(C)(C)C4CC[C@@]3(C)[C@]1(C)C[C@@H]2O (stereo partly drawn)
1.01 (inactive)

Specify reported normalized growth for the compound shown: COC(=O)Nc1nc2ccc(Sc3ccccc3)cc2[nH]1
0.968 (inactive)

Specify reported normalized growth for the compound shown: COc1ccc2[nH]cc(CCN)c2c1
0.957 (inactive)

Specify reported normalized growth for the compound shown: Cc1cc(O)c2c(c1)Cc1cccc(O)c1C2=O
1.06 (inactive)

Specify reported normalized growth for the compound shown: CCCCCCCCCCCC[C@H](C(=O)O)[C@@H](C)C(=O)O
1.03 (inactive)

Specify reported normalized growth for the compound shown: C/C=C(/C)C(=O)O[C@@H]1[C@H](OC(C)=O)[C@@]2(CO)C(CC1(C)C)C1=CCC3[C@@]4(C)CC[C@H](O[C@@H]5O[C@H](C(=O)O)[C@@H](O[C@@H]6O[C@H](CO)[C@@H](O)[C@H](O)[C@H]6O)[C@H](O)[C@H]5O[C@@H]5O[C@H](CO)[C@@H](O)[C@H](O)[C@H]5O)[C@](C)(CO)C4CC[C@@]3(C)[C@]1(C)C[C@H]2O (stereo partly drawn)
1.02 (inactive)

Specify reported normalized growth for the compound shown: C#C[C@]1(OC(C)=O)CCC2C3CCC4=CC(=O)CC[C@@H]4C3CC[C@@]21C (stereo partly drawn)
0.962 (inactive)

Specify reported normalized growth for the compound shown: CC(C)=CCCC1(C)C=Cc2c(O)c3c(c(CC=C(C)C)c2O1)OC12C(=CCCC1C(C)(C)O[C@@]2(C/C=C(\C)C(=O)O)C(=O)O)C3=O (stereo partly drawn)
0.825 (active)

Specify reported normalized growth for the compound shown: CC(C)CC(N(C)C)C1(c2ccc(Cl)cc2)CCC1 (stereo not drawn)
1.01 (inactive)

Specify reported normalized growth for the compound shown: CC(C)=CCCC1(C)C=Cc2c(O)c3c(c(CC=C(C)C)c2O1)OC12C(CC4CC1C(C)(C)OC2(C/C=C(/C)C(=O)O)C4O)C3=O (stereo not drawn)
0.991 (inactive)

Specify reported normalized growth for the compound shown: COC(=O)C[C@H]1C(C)(C)C2(O)OC34CC2C(=O)[C@]1(C)C3CC[C@]1(C)C4=CC(=O)O[C@H]1c1ccoc1 (stereo partly drawn)
1.01 (inactive)

Specify reported normalized growth for the compound shown: CCC(C)C(NC)C(=O)O (stereo not drawn)
0.991 (inactive)

* * *

Would you kindly list normalized growth for each of these compounds?
experiment: chemical genetic growth profiling, strain panel (AID 1159580);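 note: tested at 20 µM; growth read once vehicle control cultures reached saturation at 30 °C; 1 = growth at the plate median or of vehicle wells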; details: S. cerevisiae deletion strains, growth OD, locus YNR049C, strain mso1, stronger effect = lower value
The campaign covered roughly 5,500 compounds. About 2,000 (36%) were called active. Inconclusive results (about 18%) are left out. Some of the results follow.
Answer field: number only, no words.

Specify reported normalized growth for the compound shown: CO[C@@]12[C@@H]3NC3CN1C1=C(C(=O)C(N)=C(C)C1=O)[C@@H]2COC(N)=O (stereo partly specified)
0.978

Specify reported normalized growth for the compound shown: C#C[C@]1(O)CCC2C3CCC4=CC(=O)CC[C@@H]4C3CC[C@@]21CC (stereo partly specified)
1

Specify reported normalized growth for the compound shown: COc1cc(N)c(Cl)cc1C(=O)NC1CCN(Cc2ccccc2)CC1
0.997

Specify reported normalized growth for the compound shown: CCCCCCCCCCCC[C@H](C(=O)O)[C@@H](C)C(=O)O
0.979

Specify reported normalized growth for the compound shown: COC(=O)Nc1nc2ccc(Sc3ccccc3)cc2[nH]1
0.997

Specify reported normalized growth for the compound shown: COC1=C[C@@H]2[C@@H]3Cc4ccc(OC)c(O)c4[C@]2(CCN3C)CC1=O
1.01

* * *

experiment: chemical genetic growth profiling, strain panel (AID 1159580);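 note: tested at 20 µM; growth read once vehicle control cultures reached saturation at 30 °C; 1 = growth at the plate median or of vehicle wells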; conditions: S. cerevisiae deletion strains, growth OD, locus YLR418C, strain cdc73, stronger effect = lower value
Out of some 5,500 compounds screened, about 2,000 (36%) were called active. Not shown: some 18% with an inconclusive outcome. This is one part of the list.
Parameter Measured: normalized growth
Answer field: number only, no words.

Specify reported normalized growth for the compound shown: Cc1cc(O)cc(O)c1C(=O)O
1.02

Specify reported normalized growth for the compound shown: COc1cc(C(=O)O[C@H]2CC[C@@]3(C)[C@@H]4CC[C@H]5[C@]6(O)C[C@H](O)[C@@]7(O)[C@@H](CN8C[C@@H](C)CC[C@H]8[C@@]7(C)O)[C@]6(O)C[C@@]53O[C@]24O)cc(OC)c1OC
0.977

Specify reported normalized growth for the compound shown: Cc1cc(O)cc(C)c1Cl
1

Specify reported normalized growth for the compound shown: Cc1cc(O)c2c(c1)Cc1cccc(O)c1C2=O
0.902

Specify reported normalized growth for the compound shown: CCC(C)C(NC)C(=O)O (stereo not drawn)
0.971

Specify reported normalized growth for the compound shown: C/C=C1\[C@H]2C=C(C)C[C@]1(N)c1ccc(=O)[nH]c1C2
1.02

Specify reported normalized growth for the compound shown: CNCc1ccccc1
0.991

Specify reported normalized growth for the compound shown: CC(=O)OC1CC[C@@]2(C)C(CC[C@]3(C)C2CCC2C4CC(C)(C)CCC4(C(=O)O)CC[C@]23C)C1(C)C (stereo partly drawn)
1.02

Specify reported normalized growth for the compound shown: COc1ccc2c3c([nH]c2c1)C(C)=NCC3
0.98

Specify reported normalized growth for the compound shown: COc1cccc(OC)c1OCCNCC1COc2ccccc2O1 (stereo not drawn)
0.983

Specify reported normalized growth for the compound shown: NCCC(=O)N[C@@H](Cc1cnc[nH]1)C(=O)O
1

Specify reported normalized growth for the compound shown: Cc1ccc(S(=O)(=O)NC(=O)NN2CC3CCCC3C2)cc1 (stereo not drawn)
1.02

Specify reported normalized growth for the compound shown: COC(=O)Nc1nc2ccc(Sc3ccccc3)cc2[nH]1
0.918
